tested on: FXR:RXRa (NR concentration 270 nM, RXRa partner concentration 90 nM); experiment: PBM binding z-score (relative to random genomic background probes); higher = stronger binding; sequences stand for … in GC…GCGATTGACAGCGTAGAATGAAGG
measure_name: PBM binding z-score

polymer_sequence	target_desc	observed_measurement
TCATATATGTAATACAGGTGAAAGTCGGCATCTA	FXR:RXRa (NR concentration 270 nM, RXRa partner concentration 90 nM)	0.656
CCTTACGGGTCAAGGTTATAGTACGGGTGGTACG	FXR:RXRa (NR concentration 270 nM, RXRa partner concentration 90 nM)	6.07
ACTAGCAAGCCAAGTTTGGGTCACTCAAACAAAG	FXR:RXRa (NR concentration 270 nM, RXRa partner concentration 90 nM)	-0.12
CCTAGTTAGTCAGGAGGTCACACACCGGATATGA	FXR:RXRa (NR concentration 270 nM, RXRa partner concentration 90 nM)	3.41
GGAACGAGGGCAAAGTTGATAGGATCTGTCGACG	FXR:RXRa (NR concentration 270 nM, RXRa partner concentration 90 nM)	1.38
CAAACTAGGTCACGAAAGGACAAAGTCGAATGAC	FXR:RXRa (NR concentration 270 nM, RXRa partner concentration 90 nM)	5.05
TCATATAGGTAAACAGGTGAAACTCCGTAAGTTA	FXR:RXRa (NR concentration 270 nM, RXRa partner concentration 90 nM)	0.937
ACTATTAGTTGAGACGAGGGCAACAGATAGGTTG	FXR:RXRa (NR concentration 270 nM, RXRa partner concentration 90 nM)	0.212
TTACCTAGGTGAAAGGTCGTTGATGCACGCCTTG	FXR:RXRa (NR concentration 270 nM, RXRa partner concentration 90 nM)	3.04
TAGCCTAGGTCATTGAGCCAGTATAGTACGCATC	FXR:RXRa (NR concentration 270 nM, RXRa partner concentration 90 nM)	4.4

###

tested on: PPARg:RXRa DBDmut IVT, anti-RXR (DBD mutation: RXRa K156A/R161A, NR concentration 270 nM, RXRa partner concentration 90 nM); assay: PBM binding z-score (relative to random genomic background probes); higher = stronger binding; sequences stand for … in GC…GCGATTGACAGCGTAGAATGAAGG
In this section we review reported PBM binding z-score values for a set of sequences.
measure_name: PBM binding z-score

polymer_sequence	observed_measurement
TCTGCTAGATCAGTTGGTCAGCTAACGAGCTGCC	0.357
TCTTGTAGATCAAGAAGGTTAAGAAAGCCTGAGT	1.65
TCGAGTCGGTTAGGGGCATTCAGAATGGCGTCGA	0.464
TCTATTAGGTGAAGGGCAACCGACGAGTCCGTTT	5.49
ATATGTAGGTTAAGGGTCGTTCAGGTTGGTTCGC	7.55

###

tested on: PPARg:RXRa DBDmut IVT, anti-RXR (DBD mutation: RXRa K156A/R161A, NR concentration 270 nM, RXRa partner concentration 90 nM); test: PBM binding z-score (relative to random genomic background probes); higher = stronger binding; sequences stand for … in GC…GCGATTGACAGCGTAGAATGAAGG
Threshold check on PBM binding z-score: at or above 2 gives rule met, strictly below gives rule not met.

polymer_sequence	class
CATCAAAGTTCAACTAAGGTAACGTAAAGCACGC	rule not met
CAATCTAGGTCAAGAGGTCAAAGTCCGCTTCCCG	rule met
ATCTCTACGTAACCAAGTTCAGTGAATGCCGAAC	rule not met
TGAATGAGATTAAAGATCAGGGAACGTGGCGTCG	rule not met
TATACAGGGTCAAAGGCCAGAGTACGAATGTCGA	rule met
CAGGCTAGGTCAGGGCCAGTATAGGAGGAACGTT	rule not met
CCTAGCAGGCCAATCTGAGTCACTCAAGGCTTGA	rule not met
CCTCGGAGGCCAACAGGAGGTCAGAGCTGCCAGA	rule not met
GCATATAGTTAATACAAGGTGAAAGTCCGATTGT	rule not met
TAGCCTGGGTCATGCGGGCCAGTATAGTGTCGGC	rule not met
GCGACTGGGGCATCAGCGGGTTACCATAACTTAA	rule met
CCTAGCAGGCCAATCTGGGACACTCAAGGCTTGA	rule met
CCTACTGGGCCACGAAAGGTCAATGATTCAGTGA	rule met
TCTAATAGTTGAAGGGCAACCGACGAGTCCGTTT	rule met
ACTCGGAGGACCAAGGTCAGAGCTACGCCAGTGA	rule not met
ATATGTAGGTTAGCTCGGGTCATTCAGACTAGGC	rule met
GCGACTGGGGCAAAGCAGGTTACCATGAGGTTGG	rule met
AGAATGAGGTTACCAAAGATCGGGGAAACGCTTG	rule met
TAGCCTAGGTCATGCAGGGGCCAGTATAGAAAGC	rule not met
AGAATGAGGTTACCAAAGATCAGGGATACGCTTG	rule met
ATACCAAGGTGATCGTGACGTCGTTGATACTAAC	rule not met
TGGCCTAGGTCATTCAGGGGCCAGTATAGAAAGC	rule not met
TATACAGGGTCAAAGGCCAGAGTTCGAATGTCGA	rule met
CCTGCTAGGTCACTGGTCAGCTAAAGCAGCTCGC	rule met
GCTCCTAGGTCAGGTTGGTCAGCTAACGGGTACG	rule met
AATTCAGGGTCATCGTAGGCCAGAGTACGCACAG	rule met
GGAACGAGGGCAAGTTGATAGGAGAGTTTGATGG	rule met
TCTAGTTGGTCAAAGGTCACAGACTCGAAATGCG	rule met
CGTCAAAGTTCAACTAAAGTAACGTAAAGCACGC	rule not met
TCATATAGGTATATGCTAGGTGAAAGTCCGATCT	rule met
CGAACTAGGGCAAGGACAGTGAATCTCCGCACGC	rule met

###

system: RXRa homodimer (NR concentration 180 nM); test: PBM binding z-score (relative to random genomic background probes); higher = stronger binding; sequences stand for … in GC…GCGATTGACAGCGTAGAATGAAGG
PBM binding z-score for assorted sequences
measure_name: PBM binding z-score

polymer_sequence	measure_name	observed_measurement
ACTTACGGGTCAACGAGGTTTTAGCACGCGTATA	PBM binding z-score	5.5
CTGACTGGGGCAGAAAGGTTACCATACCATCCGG	PBM binding z-score	1.88
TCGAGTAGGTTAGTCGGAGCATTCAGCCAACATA	PBM binding z-score	-0.401
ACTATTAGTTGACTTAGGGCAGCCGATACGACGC	PBM binding z-score	0.378

###

Listed here are sequences together with their documented PBM binding z-score.
tested on: LXRb:RXRa (NR concentration 270 nM, RXRa partner concentration 90 nM); experiment: PBM binding z-score (relative to random genomic background probes); higher = stronger binding; sequences stand for … in GC…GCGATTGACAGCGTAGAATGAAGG

polymer_sequence	PBM binding z-score
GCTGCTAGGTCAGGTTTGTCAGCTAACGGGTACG	0.304
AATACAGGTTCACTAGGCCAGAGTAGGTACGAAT	1.5
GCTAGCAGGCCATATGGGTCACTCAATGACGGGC	0.489
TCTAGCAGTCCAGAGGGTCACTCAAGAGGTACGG	1.19
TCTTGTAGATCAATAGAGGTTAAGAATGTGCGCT	1.44
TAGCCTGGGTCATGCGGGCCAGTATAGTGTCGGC	1.03
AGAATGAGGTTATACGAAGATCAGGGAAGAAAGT	1.54
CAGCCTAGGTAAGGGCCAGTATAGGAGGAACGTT	-1.05
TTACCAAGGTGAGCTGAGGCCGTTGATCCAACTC	-0.569
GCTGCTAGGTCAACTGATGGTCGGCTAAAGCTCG	1.89
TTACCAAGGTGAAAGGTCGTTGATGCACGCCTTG	2.79
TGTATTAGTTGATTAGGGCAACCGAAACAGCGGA	0.234
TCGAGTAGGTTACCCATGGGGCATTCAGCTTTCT	0.752
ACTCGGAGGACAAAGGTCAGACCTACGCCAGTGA	3.64

###

tested on: LXRb homodimer (NR concentration 270 nM); test: PBM binding z-score (relative to random genomic background probes); higher = stronger binding; sequences stand for … in GC…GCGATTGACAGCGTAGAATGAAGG
Answer FALSE if PBM binding z-score is under 0.6, and TRUE if it is 0.6 or more.

polymer_sequence	class
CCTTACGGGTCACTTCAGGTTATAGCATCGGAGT	TRUE
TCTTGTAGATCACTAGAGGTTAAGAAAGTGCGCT	FALSE
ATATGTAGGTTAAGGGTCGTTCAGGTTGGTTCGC	TRUE
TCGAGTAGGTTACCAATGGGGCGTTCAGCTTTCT	FALSE
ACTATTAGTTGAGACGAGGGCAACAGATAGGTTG	FALSE
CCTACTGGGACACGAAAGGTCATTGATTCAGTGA	TRUE
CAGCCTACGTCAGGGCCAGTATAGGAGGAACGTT	FALSE
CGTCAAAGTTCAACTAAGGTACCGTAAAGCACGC	TRUE
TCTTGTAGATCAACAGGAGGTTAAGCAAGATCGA	FALSE
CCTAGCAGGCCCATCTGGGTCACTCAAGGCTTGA	FALSE
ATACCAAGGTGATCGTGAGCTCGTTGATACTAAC	FALSE
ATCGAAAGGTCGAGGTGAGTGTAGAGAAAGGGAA	FALSE
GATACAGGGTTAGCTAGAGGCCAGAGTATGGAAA	FALSE
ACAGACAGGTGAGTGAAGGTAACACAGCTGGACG	FALSE
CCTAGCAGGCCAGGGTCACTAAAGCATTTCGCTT	FALSE
TAGCCTAGGTTATTCAGGGGCCAGTATAGAAAGC	FALSE
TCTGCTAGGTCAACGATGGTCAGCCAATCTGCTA	FALSE
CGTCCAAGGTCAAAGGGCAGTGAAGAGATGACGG	TRUE
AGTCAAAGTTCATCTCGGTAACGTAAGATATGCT	TRUE
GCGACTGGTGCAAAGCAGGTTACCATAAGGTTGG	FALSE
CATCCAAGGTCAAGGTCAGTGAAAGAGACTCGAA	TRUE

The values you see were collected from the supplement of paper PMC6555819.
